Ref: ChEMBL document CHEMBL5329164

Assay Comment: Stability in monkey liver microsomes assessed as intrinsic clearance measured per mg protein at 1 uM preincubated for 10 mins followed by reaction initiation measured upto 60 mins in presence of NADPH
Format: ADME, Macaca mulatta, Microsome
Condition Context: rhesus monkey, time < 70 min, read-out: CLH
Attribute Measured: microsomal CLint at 1 µM (µL/min/mg)
Form entry: value (µL/min/mg) — number only.

Below, each entry is followed by its recorded microsomal CLint at 1 µM result.
| Compound | Reported Measurement |
| --- | --- |
| Nc1ncnc2c1c(-c1ccc(Oc3ccccc3)cc1)nn2C1CCN(C(=O)Cc2ccc(Nc3ccc4c(c3)CN(C3CCC(=O)NC3=O)C4=O)cc2)CC1 (stereo not drawn) | 156 |
| Nc1ncnc2c1c(-c1ccc(Oc3ccccc3)cc1)nn2[C@@H]1CCCN(C(=O)c2ccc(CNc3ccc4c(c3)C(=O)N(C3CCC(=O)NC3=O)C4=O)cc2)C1 (stereo partly drawn) | 4.52 |

Proceed to the following item.
Task: For Nc1ncnc2c1c(-c1ccc(Oc3ccccc3)cc1)nn2[C@@H]1CCCN(C(=O)Cc2ccc(Nc3ccc4c(c3)CN(C3CCC(=O)NC3=O)C4=O)cc2)C1 (stereo partly drawn) , write its microsomal CLint at 1 µM.
Output: 139

---

Assay Comment: Oral bioavailability in BALB/c mouse at 5 mg/kg measured for 24 hrs by LCMS analysis
Assay type: ADME, organism-based
Condition Context: in vivo
Attribute Measured: bioavailability (%)
Form entry: value (%) — number only.

| Molecule | bioavailability, % |
| --- | --- |
| Nc1ncnc2c1c(-c1ccc(Oc3ccccc3)cc1)nn2[C@@H]1CCCN(C(=O)Cc2ccc(Nc3ccc4c(c3)CN(C3CCC(=O)NC3=O)C4=O)cc2)C1 (stereo partly drawn) | 2.23 |
| Nc1ncnc2c1c(-c1ccc(Oc3ccccc3)cc1)nn2[C@@H]1CCCN(C(=O)c2ccc(CNc3ccc4c(c3)C(=O)N(C3CCC(=O)NC3=O)C4=O)cc2)C1 (stereo partly drawn) | 4.78 |

Proceed to the following item.
Task: For Nc1ncnc2c1c(-c1ccc(Oc3ccccc3)cc1)nn2C1CCN(C(=O)Cc2ccc(Nc3ccc4c(c3)CN(C3CCC(=O)NC3=O)C4=O)cc2)CC1 (stereo not drawn) , write its bioavailability.
Output: 0.51

---

Assay Comment: Apparent permeability across basal to apical side in MDCK-II cells at 10 uM measured for 120 mins by LC-MS/MS analysis
Format: ADME, cell-based, Canis lupus familiaris
Condition Context: dog
Papp B→A at 2 h, 10 µM reference
Form entry: value (×10⁻⁶ cm/s) — number only.

| Compound | Papp B→A at 2 h, 10 µM [×10⁻⁶ cm/s] |
| --- | --- |
| Nc1ncnc2c1c(-c1ccc(Oc3ccccc3)cc1)nn2[C@@H]1CCCN(C(=O)Cc2ccc(Nc3ccc4c(c3)CN(C3CCC(=O)NC3=O)C4=O)cc2)C1 (some centres undefined) | 0.071 |
| Nc1ncnc2c1c(-c1ccc(Oc3ccccc3)cc1)nn2C1CCN(C(=O)Cc2ccc(Nc3ccc4c(c3)CN(C3CCC(=O)NC3=O)C4=O)cc2)CC1 (centres undefined) | 0.25 |
| COCCc1ccc(OCC(O)CNC(C)C)cc1 (centres undefined) | 11.3 |

Proceed to the following item.
Task: For Nc1ncnc2c1c(-c1ccc(Oc3ccccc3)cc1)nn2[C@@H]1CCCN(C(=O)c2ccc(CNc3ccc4c(c3)C(=O)N(C3CCC(=O)NC3=O)C4=O)cc2)C1 (some centres undefined) , write its Papp B→A at 2 h, 10 µM.
Output: 0.01

---

Assay Comment: Stability in dog liver microsomes assessed as intrinsic clearance measured per mg protein at 1 uM preincubated for 10 mins followed by reaction initiation measured upto 60 mins in presence of NADPH
Assay type: ADME, Canis lupus familiaris, Microsome
Condition Context: time < 70 min, read-out: CLH
microsomal CLint at 1 µM reference
Please provide the amount together with its unit, number first.

| Molecule | microsomal CLint at 1 µM |
| --- | --- |
| Nc1ncnc2c1c(-c1ccc(Oc3ccccc3)cc1)nn2[C@@H]1CCCN(C(=O)Cc2ccc(Nc3ccc4c(c3)CN(C3CCC(=O)NC3=O)C4=O)cc2)C1 (stereo partly drawn) | 60.3 µL/min/mg |
| Nc1ncnc2c1c(-c1ccc(Oc3ccccc3)cc1)nn2C1CCN(C(=O)Cc2ccc(Nc3ccc4c(c3)CN(C3CCC(=O)NC3=O)C4=O)cc2)CC1 (stereo not drawn) | 48.7 µL/min/mg |

Task: For Nc1ncnc2c1c(-c1ccc(Oc3ccccc3)cc1)nn2[C@@H]1CCCN(C(=O)c2ccc(CNc3ccc4c(c3)C(=O)N(C3CCC(=O)NC3=O)C4=O)cc2)C1 (stereo partly drawn) , write its microsomal CLint at 1 µM.
Output: 5.45 µL/min/mg

---

Assay Comment: Stability in mouse liver microsomes assessed as half life at 1 uM preincubated for 10 mins followed by reaction initiation measured upto 60 mins in presence of NADPH
Assay type: ADME, Microsome
Condition Context: time < 70 min
Attribute Measured: half-life at 1 µM (min)
Form entry: value (min) — number only.

| Compound | Scale Unit | half-life at 1 µM |
| --- | --- | --- |
| Nc1ncnc2c1c(-c1ccc(Oc3ccccc3)cc1)nn2[C@@H]1CCCN(C(=O)c2ccc(CNc3ccc4c(c3)C(=O)N(C3CCC(=O)NC3=O)C4=O)cc2)C1 (stereo partly drawn) | min | 136 |
| Nc1ncnc2c1c(-c1ccc(Oc3ccccc3)cc1)nn2[C@@H]1CCCN(C(=O)Cc2ccc(Nc3ccc4c(c3)CN(C3CCC(=O)NC3=O)C4=O)cc2)C1 (stereo partly drawn) | min | 12.1 |

Proceed to the following item.
Task: For Nc1ncnc2c1c(-c1ccc(Oc3ccccc3)cc1)nn2C1CCN(C(=O)Cc2ccc(Nc3ccc4c(c3)CN(C3CCC(=O)NC3=O)C4=O)cc2)CC1 (stereo not drawn) , write its half-life at 1 µM.
Output: 13

---

Assay Comment: Apparent permeability across apical to basal side in MDCK-II cells assessed as compound recovery at 10 uM measured for 120 mins by LC-MS/MS analysis
Assay type: ADME, cell-based, Canis lupus familiaris
Condition Context: dog, read-out: Drug recovery
Attribute Measured: recovery at 2 h, 10 µM (%)
Form entry: value (%) — number only.

Below, each entry is followed by its recorded recovery at 2 h, 10 µM result.
| Compound | Scale Unit | Reported Measurement |
| --- | --- | --- |
| CC(C)NCC(O)COc1ccc(CC(N)=O)cc1 (stereo not given) [ATENOLOL] | % | 94.4 |
| Nc1ncnc2c1c(-c1ccc(Oc3ccccc3)cc1)nn2[C@@H]1CCCN(C(=O)Cc2ccc(Nc3ccc4c(c3)CN(C3CCC(=O)NC3=O)C4=O)cc2)C1 (stereo not given in full) | % | 107 |
| Nc1ncnc2c1c(-c1ccc(Oc3ccccc3)cc1)nn2[C@@H]1CCCN(C(=O)c2ccc(CNc3ccc4c(c3)C(=O)N(C3CCC(=O)NC3=O)C4=O)cc2)C1 (stereo not given in full) | % | 111 |
| COCCc1ccc(OCC(O)CNC(C)C)cc1 (stereo not given) [METOPROLOL] | % | 97.1 |

Proceed to the following item.
Task: For Nc1ncnc2c1c(-c1ccc(Oc3ccccc3)cc1)nn2C1CCN(C(=O)Cc2ccc(Nc3ccc4c(c3)CN(C3CCC(=O)NC3=O)C4=O)cc2)CC1 (stereo not given) , write its recovery at 2 h, 10 µM.
Output: 98.5

---

Assay Comment: Stability in rat liver microsomes assessed as half life at 1 uM preincubated for 10 mins followed by reaction initiation measured upto 60 mins in presence of NADPH
Type: ADME, Microsome
Condition Context: time < 70 min
Attribute Measured: half-life at 1 µM (min)
Form entry: value (min) — number only.

| Compound | half-life at 1 µM [min] |
| --- | --- |
| Nc1ncnc2c1c(-c1ccc(Oc3ccccc3)cc1)nn2C1CCN(C(=O)Cc2ccc(Nc3ccc4c(c3)CN(C3CCC(=O)NC3=O)C4=O)cc2)CC1 (stereo not drawn) | 24.8 |
| Nc1ncnc2c1c(-c1ccc(Oc3ccccc3)cc1)nn2[C@@H]1CCCN(C(=O)c2ccc(CNc3ccc4c(c3)C(=O)N(C3CCC(=O)NC3=O)C4=O)cc2)C1 (stereo partly drawn) | 181 |

Task: For Nc1ncnc2c1c(-c1ccc(Oc3ccccc3)cc1)nn2[C@@H]1CCCN(C(=O)Cc2ccc(Nc3ccc4c(c3)CN(C3CCC(=O)NC3=O)C4=O)cc2)C1 (stereo partly drawn) , write its half-life at 1 µM.
Output: 14.6

---

Assay Comment: Half life in BALB/c mouse at 2 mg/kg, iv measured for 24 hrs by LCMS analysis
Assay type: ADME, organism-based
Condition Context: in vivo
half-life reference
Form entry: value (h) — number only.

Below, each entry is followed by its recorded half-life result.
| Compound | Scale Unit | half-life |
| --- | --- | --- |
| Nc1ncnc2c1c(-c1ccc(Oc3ccccc3)cc1)nn2[C@@H]1CCCN(C(=O)c2ccc(CNc3ccc4c(c3)C(=O)N(C3CCC(=O)NC3=O)C4=O)cc2)C1 (stereo partly drawn) | h | 0.98 |
| Nc1ncnc2c1c(-c1ccc(Oc3ccccc3)cc1)nn2[C@@H]1CCCN(C(=O)Cc2ccc(Nc3ccc4c(c3)CN(C3CCC(=O)NC3=O)C4=O)cc2)C1 (stereo partly drawn) | h | 5.15 |

Proceed to the following item.
Task: For Nc1ncnc2c1c(-c1ccc(Oc3ccccc3)cc1)nn2C1CCN(C(=O)Cc2ccc(Nc3ccc4c(c3)CN(C3CCC(=O)NC3=O)C4=O)cc2)CC1 (stereo not drawn) , write its half-life.
Output: 4.93
